Assignment: determine reported self-aminoacylation for the given sequences.
system: biotinyl-Ile-oxazolone; test: self-aminoacylation, catalytic enhancement (BIO) (fold over background); higher = more active; k-Seq, kA / k0A0; sequences stand for … in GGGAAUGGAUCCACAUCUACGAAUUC…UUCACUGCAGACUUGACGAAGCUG
Variants at the floor of the assay were thinned out.
No unit in the answer, only the number.

Request: Tell us which self-aminoacylation value is on record for AUUGCCCUGGUCAUCGAGGGA [Fam2.1 aminoacylation ribozyme variant]
Response: 1.93

Request: Tell us which self-aminoacylation value is on record for CGACUUCAAACCAUCGGUCUG [Fam1A.1 aminoacylation ribozyme variant]
Response: 0.838

Request: Tell us which self-aminoacylation value is on record for CUUACCCGGGUCAUCGAGUGA [Fam2.1 aminoacylation ribozyme variant]
Response: 3.03

Request: Tell us which self-aminoacylation value is on record for GCACACUUCGAGCAAUCGGUC [Fam1B.1 aminoacylation ribozyme variant]
Response: 1.87

Request: Tell us which self-aminoacylation value is on record for AUUCACCAAGGUUAUCGGGUG [Fam2.2 aminoacylation ribozyme variant]
Response: 4.45

Request: Tell us which self-aminoacylation value is on record for AUACUUCAAACAAUAGGUCUG [Fam1A.1 aminoacylation ribozyme variant]
Response: 1.08

Request: Tell us which self-aminoacylation value is on record for AUUCAUCUAGGUCAUCGUGUG [Fam2.2 aminoacylation ribozyme variant]
Response: 1.05

Request: Tell us which self-aminoacylation value is on record for CUACAUCAAACCAUCGGUCUG [Fam1A.1 aminoacylation ribozyme variant]
Response: 0.834

Request: Tell us which self-aminoacylation value is on record for UGGUUUGCUAAUAGUCGCAAG [Fam3.1 aminoacylation ribozyme variant]
Response: 1.81

Request: Tell us which self-aminoacylation value is on record for AUUACCCUGGUCACCGUGUGA [Fam2.1 aminoacylation ribozyme variant]
Response: 1.98

Request: Tell us which self-aminoacylation value is on record for AGUACCCUGAUCAUCGAGUGA [Fam2.1 aminoacylation ribozyme variant]
Response: 3.22

Request: Tell us which self-aminoacylation value is on record for AUUCACCUAAGUCAUAGGGUG [Fam2.2 aminoacylation ribozyme variant]
Response: 1.32

Request: Tell us which self-aminoacylation value is on record for CCACCCUUCAAGCAAUCGGUA [Fam1B.1 aminoacylation ribozyme variant]
Response: 1.4

Request: Tell us which self-aminoacylation value is on record for CUGCUUCAAACAUUCGGUCUG [Fam1A.1 aminoacylation ribozyme variant]
Response: 1.29

Request: Tell us which self-aminoacylation value is on record for CUACUUCAAACACGCGGUCUG [Fam1A.1 aminoacylation ribozyme variant]
Response: 1.61

Request: Tell us which self-aminoacylation value is on record for CCACACCUCAAGCAAUCGGUU [Fam1B.1 aminoacylation ribozyme variant]
Response: 1.43

Request: Tell us which self-aminoacylation value is on record for CAACACUUCAAGCAAUCGGUU [Fam1B.1 aminoacylation ribozyme variant]
Response: 1.84

Request: Tell us which self-aminoacylation value is on record for AUUACCCUCGUCAGCGAGUGA [Fam2.1 aminoacylation ribozyme variant]
Response: 2.39
